Field: MIC. Provide a value for each of the compounds that follow.
Test system: S. aureus ATCC 25923
PROCEDURE DETAILS: In vitro antibacterial evaluation, MIC by agar dilution, S. aureus ATCC 25923
Type: cell-based
SETTINGS: Staphylococcus aureus, ATCC25923

Report MIC for O=C(Cc1ccccc1)N[C@@H]1C(=O)N2C(C(=O)O)=C(Sc3ccccc3I)CS[C@H]12 tested on S. aureus ATCC 25923.
< 0.015 µg/mL

Try this compound next: N#CCC(=O)N[C@@H]1C(=O)N2C(C(=O)O)=C(Sc3ccc(CSC(=N)N)cc3I)CS[C@H]12
< 0.25 µg/mL

Try this compound next: O=C(Cc1ccccc1)N[C@@H]1C(=O)N2C(C(=O)O)=C(Sc3ccccc3CSC3=NCCN3)CS[C@H]12
< 0.25 µg/mL

Try this compound next: O=C(Cc1ccccc1)N[C@@H]1C(=O)N2C(C(=O)O)=C(Sc3ccccc3-c3cnco3)CS[C@H]12
< 0.25 µg/mL

Try this compound next: O=C(CSc1ccccc1)N[C@@H]1C(=O)N2C(C(=O)O)=C(Sc3cc(Cl)ccc3Cl)CS[C@H]12
< 0.25 µg/mL

Try this compound next: O=C(Cc1ccccc1)N[C@@H]1C(=O)N2C(C(=O)O)=C(Sc3cccc4c3CCCC4)CS[C@H]12
< 0.25 µg/mL
